Data origin, for the record: PubChem BioAssay (NCI)

test system: T-47D breast; assay: NCI-60 one-dose screen, 48 h (100 = growth as untreated, 0 = no growth, -100 = all killed); settings: 10 µM unless noted
This is part of a sample that, as a whole, favours compounds with a hit. Of some 83,000 tested, about 20% had one in any assay. Calls of active or inactive are those of the source. The calls were made as follows: active = growth percent below 10; inactive = the rest.

{"SMILES DATA": "COc1ccc(NC(=O)Nc2ccc(OCCCCCC(=O)NO)cc2)cc1", "growth": "107% (inactive)"}
{"SMILES DATA": "C=C(C)[C@@H]1CC[C@]2(C(N)=O)CC[C@]3(C)[C@H](CC[C@@H]4[C@@]5(C)CC[C@H](OCCC#N)C(C)(C)[C@@H]5CC[C@]43C)[C@@H]12", "growth": "72.3% (inactive)"}
{"SMILES DATA": "CC1(C)NCCC[C@]2(C)[C@H]3CC[C@H]4[C@H]5[C@H](C(=O)/C=C/c6cccnc6)CCC[C@]5(CO)CC[C@@]4(C)[C@]3(C)CC[C@@H]12", "growth": "81.3% (inactive)"}
{"SMILES DATA": "CC(=C(c1ccc(OCCN2CCCCC2)cc1)c1ccc(OCCN2CCCCC2)cc1)c1ccc(Cl)cc1", "growth": "-72.6% (active)"}

----------
system: M14 melanoma; assay: NCI-60 one-dose screen, 48 h; conditions: 10 µM unless noted
About 83,000 compounds went through this panel and 20% of them were active in at least one assay; those are over-represented in the sample as a whole. Activity calls are given as the source filed them. Rule for the calls: active = growth percent below 10; inactive = the rest.
Classes used: y (active), n (inactive)

{"MOLECULE": "CSC(SC)=C(C#N)c1nc2ccccc2s1", "LABEL": "n"}
{"MOLECULE": "C/C(=N\\O)c1ccc(NC(=O)CSc2nnc(-c3cc(-c4ccc(S(C)(=O)=O)cc4)nc4ccccc34)n2-c2ccccc2)cc1", "LABEL": "n"}
{"MOLECULE": "O=C(CSc1nnc(-c2cc(-c3ccccc3)nc3ccccc23)n1-c1ccccc1)Nc1ccc(C(=O)/C=C/c2ccc(Cl)cc2)cc1", "LABEL": "n"}
{"MOLECULE": "CC(=O)OC[C@]12CC[C@@H]([C@@H](C)c3nnc(-c4ccncc4)o3)[C@@H]1[C@H]1CC[C@@H]3[C@@]4(C)CC[C@H](OC(C)=O)C(C)(C)[C@@H]4CC[C@@]3(C)[C@]1(C)CC2", "LABEL": "n"}
{"MOLECULE": "CCN1C(=O)N(CC)C2C1NC(=S)N2/N=C/c1ccc(C(F)(F)F)cc1 (centres undefined)", "LABEL": "n"}
{"MOLECULE": "O=C(N/N=C\\c1cccc([N+](=O)[O-])c1)N/N=C/c1cccc([N+](=O)[O-])c1", "LABEL": "n"}
{"MOLECULE": "O=C1/C(=C/c2ccccc2F)CN(C(=O)C(Cl)Cl)C/C1=C\\c1ccccc1F", "LABEL": "y"}
{"MOLECULE": "CN(C)CCCC1(c2ccc(F)cc2)OCc2cc(-c3ccc4cc[nH]c4c3)ccc21 (centres undefined)", "LABEL": "y"}
{"MOLECULE": "C[C@H](C(=O)N(CCc1ccc(Cl)c(Cl)c1)Cc1cncs1)[C@@H]1CC[C@H](C[C@H](C)n2cc(CN3CCC(c4ccc(Cl)cc4)CC3)nn2)O1", "LABEL": "n"}

----------
system: IGROV1 ovarian; assay: NCI-60 one-dose screen, 48 h; settings: 10 µM unless noted
Compounds without any hit were thinned out: in the full panel of roughly 83,000, 20% have a hit. Calls of active or inactive are those of the source. Rule for the calls: active = growth percent below 10; inactive = the rest.
Classes used: Y = active, N = inactive

{"SMILES DATA": "CN1CCN(C(=O)C(C)(C)c2ccc(C(=O)Nc3cn4cc(-c5ccncc5)ccc4n3)cc2)CC1", "TESTED ON": "IGROV1 ovarian", "LABEL": "Y"}
{"SMILES DATA": "O=[N+]([O-])c1ccc(-c2cn3nc(-c4c[nH]c5ccccc45)sc3n2)cc1", "TESTED ON": "IGROV1 ovarian", "LABEL": "N"}
{"SMILES DATA": "CCOC(=O)c1c(C)c2c(n1Cc1ccccc1)CSCC2=O", "TESTED ON": "IGROV1 ovarian", "LABEL": "N"}
{"SMILES DATA": "O=c1c2ccccc2c(=O)c2c1sc1c(=O)c3ccc(O)cc3c(=O)c12", "TESTED ON": "IGROV1 ovarian", "LABEL": "Y"}
{"SMILES DATA": "COc1ccc(/C=C/c2ccc3ccccc3n2)c(OC)c1", "TESTED ON": "IGROV1 ovarian", "LABEL": "N"}
{"SMILES DATA": "CC(=O)Oc1ccc(OC(C)=O)c2ccccc12", "TESTED ON": "IGROV1 ovarian", "LABEL": "N"}

----------
// growth lookup, one value per entry
test system: A549/ATCC NSCLC; experiment: NCI-60 one-dose screen, 48 h (100 = growth as untreated, 0 = no growth, -100 = all killed); settings: 10 µM unless noted
This is part of a sample that, as a whole, favours compounds with a hit. Of some 83,000 tested, about 20% had one in any assay.
READOUT TYPE: growth (%)

{"MOLECULE": "Fc1ccc2[nH]cc(-c3nc(-c4c[nH]c5ccncc45)cs3)c2c1", "REPORTED RESULT": -41.7}
{"MOLECULE": "CCN1C(=O)N(CC)C2C1NN=c1s/c(=C3\\C(=O)N(CC(C)C)c4ccccc43)c(=O)n12 (stereo unspecified)", "REPORTED RESULT": 21.6}
{"MOLECULE": "O=C(CCCCCCN1CC(=O)N2[C@H](c3ccc(Cl)cc3)c3[nH]c4ccccc4c3C[C@@H]2C1=O)NO", "REPORTED RESULT": 90.1}
{"MOLECULE": "COc1cc(-c2nc3sccn3c2-c2ccnc(NCCNS(=O)(=O)c3ccc(Cl)cc3)n2)ccc1F", "REPORTED RESULT": 30}
{"MOLECULE": "C=CC(=O)Nc1ccc(Oc2nccc(Nc3nnc(-c4ccc(C)cc4)s3)n2)cc1", "REPORTED RESULT": 77}
{"MOLECULE": "CCOC(=O)c1cnc2c(N=Nc3ccc(OC)cc3)c(N)nn2c1N", "REPORTED RESULT": 95}

----------
system: NCI-H322M lung; assay: NCI-60 one-dose screen, 48 h (100 = growth as untreated, 0 = no growth, -100 = all killed); conditions: 10 µM unless noted
Compounds without any hit were thinned out: in the full panel of roughly 83,000, 20% have a hit.
Given measured growth, output yes if it is greater than or equal to 90% and no if not.

{"MOLECULE": "CCN1CCN(CC(=O)Nc2nc3ccc(NCc4ccc(F)cc4)cc3s2)CC1", "LABEL": "yes"}
{"MOLECULE": "CN(CCC(=O)c1ccccc1)CCC(=O)c1ccccc1", "LABEL": "yes"}
{"MOLECULE": "O=C(O)COc1ccc(Cl)c(Cl)c1", "LABEL": "yes"}
{"MOLECULE": "O=C(Nc1ccccc1O)c1ccc(CNC(=O)c2ccsc2Nc2ccnc(C(F)(F)F)c2)cc1", "LABEL": "no"}
{"MOLECULE": "C[n+]1ccc(CCc2c[nH]c3ccccc23)cc1", "LABEL": "yes"}
{"MOLECULE": "C=C(CNCCc1ccc(O)cc1)[C@@H]1CC[C@]2(CO)CC[C@]3(C)[C@H](CC[C@@H]4[C@@]5(C)CCC(=O)C(C)(C)[C@@H]5CC[C@]43C)[C@@H]12", "LABEL": "no"}
{"MOLECULE": "C/C=C(\\C)C(=O)N[C@H]1C(O)C[C@]2(C)C3CC[C@@]4(C)C(CC[C@@H]4C(C)N(C)C)C3CCC2C1O (stereo partly drawn)", "LABEL": "no"}

----------
tested on: RXF 393 renal; assay: NCI-60 one-dose screen, 48 h; conditions: 10 µM unless noted
About 83,000 compounds went through this panel and 20% of them were active in at least one assay; those are over-represented in the sample as a whole. Active and inactive are the calls of the source. How the source made its calls: active means growth percent below 10; inactive means the rest.
Classes used: active, inactive

{"COMPOUND": "C=CCC(CCCC)(C(=O)OCC)C(=O)OCC", "LABEL": "inactive"}
{"COMPOUND": "N#Cc1ccc(O)c(C2=NCC(Cc3ccccc3)O2)c1 (centres undefined)", "LABEL": "inactive"}
{"COMPOUND": "Cc1ccccc1Nc1cc(O)c2c(=O)cc(-c3ccccc3)oc2c1", "LABEL": "inactive"}
{"COMPOUND": "Cc1cccc(-c2nc(Nc3ccc4ncsc4c3)c3ccccc3n2)n1", "LABEL": "inactive"}
{"COMPOUND": "Nc1nc(N)c2c(n1)NC(c1cccc(Nc3ccnc4cc(C(F)(F)F)ccc34)c1)CC(c1ccccc1)=N2 (centres undefined)", "LABEL": "inactive"}
{"COMPOUND": "CN1CCN(C(=S)SCCCCOc2cc(=O)oc3ccccc23)CC1", "LABEL": "inactive"}
{"COMPOUND": "COc1ccc(C(=O)c2cc3c(N)c(C(=O)Nc4ccccc4)sc3nc2C)cc1", "LABEL": "active"}
{"COMPOUND": "C=CCn1c(SCC(=O)Nc2ccc(/C(C)=N/O)cc2)nnc1-c1cc(-c2ccc(S(N)(=O)=O)cc2)nc2ccccc12", "LABEL": "inactive"}
{"COMPOUND": "C=C1C(=O)O[C@H]2[C@H]1CC/C(CNC(=O)c1c[nH]c3ccc(F)cc13)=C\\CC[C@@]1(C)O[C@@H]21", "LABEL": "active"}
{"COMPOUND": "COC(=O)c1c2c(c(C)[n+]([O-])c1C)C(=O)C(NCc1cccc(Cl)c1)=CC2=O", "LABEL": "inactive"}
{"COMPOUND": "Fc1cc(Nc2ccc3c(OCCCN4CCOCC4)cccc3n2)ccc1Cl", "LABEL": "active"}
{"COMPOUND": "COc1cc(C(=O)n2nc(N3CCOCC3)c3cc(-n4cccc4)ccc32)cc(OC)c1OC", "LABEL": "active"}
{"COMPOUND": "CCN1C(=O)N(CC)C2C1NN=c1s/c(=C\\c3cnc(C)n3C)c(=O)n12 (centres undefined)", "LABEL": "active"}
{"COMPOUND": "CCOC(=O)c1c(C)c2c(n1Cc1ccccc1)CSCC2=O", "LABEL": "inactive"}
